Cited source for all entries: the supplement of paper PMC9135407

- Tested on: primary human hepatic stellate cells (donor 1)
- assay-method-text: scaled lipid accumulation score (0 = DMSO-like, 1 = nortriptyline-like); higher = stronger HSC inactivation (lipid re-accumulation), active = hit call of the paper
- test-settings: library stock concentration: 400 uM; 48 h
Out of some 5,800 compounds screened, about 620 (11%) showed activity.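 The calls were made as follows: active = score above a cut-off or among the top three wells of a plate; in these data no inactive exceeds 0.85.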 For the sample, actives were picked, then their nearest neighbours and some compounds at random.
Outcome codes: active, inactive

1. O=C(NC(COc1ccc2[nH]c(=O)[nH]c2c1)c1ccccc1)c1cccn(Cc2ccc(F)c(F)c2)c1=O (stereo not given) : inactive
2. CCN1CCN(C(=O)Cc2ccc(Nc3ncc(F)c(Nc4ccc(C(=O)Nc5ccccc5Cl)cc4)n3)cc2)CC1 : inactive
3. CN(C)NC(=O)CCC(=O)O [Daminozide] : inactive
4. N[C@@H]1C[C@H]1c1ccccc1.N[C@H]1C[C@@H]1c1ccccc1 : inactive
5. Cc1n[nH]c2ccc(-c3cncc(OC[C@@H](N)Cc4c[nH]c5ccccc45)c3)cc12 : active
6. Cc1sc2c(c1C)C(c1ccc(Cl)cc1)=N[C@H](CC(=O)OC(C)(C)C)c1nnc(C)n1-2 : inactive
7. COc1ccc(N(C(=O)Oc2c(C)cccc2C)c2ccnc(Nc3ccc(N4CCN(C)CC4)cc3)n2)c(OC)c1 : inactive
8. O=c1[nH]c2ccccc2n1C1CCN(Cc2ccc(-c3[nH]c4cc5ncnc5cc4nc3-c3ccccc3)cc2)CC1 : inactive
9. CC1=C(O)C(=O)C=C2C1=CC=C1[C@@]2(C)CC[C@@]2(C)[C@@H]3C[C@](C)(C(=O)O)CC[C@]3(C)CC[C@]12C : inactive
10. CCn1cnc2c(Nc3cccc(Cl)c3)nc(N[C@@H]3CCCC[C@@H]3N)nc21 : inactive
